Just for reference, the Human Domainome abundance scans (Beltran et al. 2025) is where these values come from.

B1: Homeobox protein SIX6, residues 134 to 184; numbered along this chain, O95475 (parent)
chain: CFKERTRHLLREWYLQDPYPNPSKKRELAQATGLTPTQVGNWFKNRRQRDR

# Variants of: B1
# Method: abundance fitness (aPCA) (normalised: wild type 0, dead -1); higher = more abundant; growth selection in yeast, the domain comes from the species named
# Assay Context: Homo sapiens
Quantity Measured: abundance fitness
In your answer, state the number alone without any accompanying words.

Asked: Which abundance fitness is listed for CFKERTRHLLREWYLQDPYPNPKKKRELAQATGLTPTQVGNWFKNRRQRDR [S23K] ?
Given back: -0.529

Asked: Now this one: CFKERTRHLLREWYLQDPYPNPSKKRELAQATGLTPTQVHNWFKNRRQRDR [G40H]
Given back: -0.159

Asked: Now this one: CFKERTRHLLREWYLQDPYPMPSKKRELAQATGLTPTQVGNWFKNRRQRDR [N21M]
Given back: -0.049

Asked: Now this one: CFKERTRHLLREWYLQDPYPNPSKKRELAQTTGLTPTQVGNWFKNRRQRDR [A31T]
Given back: -0.045

Asked: Now this one: CFKERTRHLLREWYLQDPYPNPSKKRELAQATGLTVTQVGNWFKNRRQRDR [P36V]
Given back: -0.17

Asked: Now this one: CFKERTRHLLREWYLQDPNPNPSKKRELAQATGLTPTQVGNWFKNRRQRDR [Y19N]
Given back: -0.132

New cases:
Asked: Which abundance fitness is listed for CFKERTRHLLREWYLQDPYPNPSKKRELAQATGLTPTQVGNWFDNRRQRDR [K44D] ?
Given back: -0.57

Asked: Now this one: CFKERTRHLLREWYLQDPYPNPSKKRELAQATGLTPTQVGNFFKNRRQRDR [W42F]
Given back: -0.649

Asked: Now this one: CFKERTRHLLREWYLQDPYPNPSKKRDLAQATGLTPTQVGNWFKNRRQRDR [E27D]
Given back: -0.194

Asked: Now this one: CFKERTRHLLREWYLQDPYPNPSKKEELAQATGLTPTQVGNWFKNRRQRDR [R26E]
Given back: 0.037

Asked: Now this one: CFKERTRHLLREWYLQDPYPNPSKKYELAQATGLTPTQVGNWFKNRRQRDR [R26Y]
Given back: -0.378

Asked: Now this one: CFKERTRHLLREWYLQDPYPNPSKKRELAQATGLTPTQVGNWFKNRRQRNR [D50N]
Given back: -0.693

Asked: Now this one: CFKERTRHLLREWYLQDPYPNPSKKRELAQATGLTPTQVGNWGKNRRQRDR [F43G]
Given back: -0.577

Asked: Now this one: CFKERTRHLLREWYLQDPYPNPSKKRELAQATGLTPTQVGNWFKNRRDRDR [Q48D]
Given back: -0.221

Asked: Now this one: CFKERTRHLLREWYLQDPYPNPSKKRELAQATGLTPTQVGNWFKVRRQRDR [N45V]
Given back: -0.612

Asked: Now this one: CFKERTRHLLREWYLQDPYPNPSKKRELAQATGLTPTQVGNWFWNRRQRDR [K44W]
Given back: -0.634

Asked: Now this one: CFKERTRHLLREWYLQDPYPNPSKKRELAQATGLTPTQVGNWFKNRRGRDR [Q48G]
Given back: -0.237

Asked: Now this one: CFKERTRHLLREWYLQDPYPNPSKKRELAQATCLTPTQVGNWFKNRRQRDR [G33C]
Given back: -0.757

Asked: Now this one: CFKERTRHLLREWYLQDPYPNPSKKRELAQATGLTPDQVGNWFKNRRQRDR [T37D]
Given back: 0.026

Asked: Now this one: CFKERTRHLLREWYLQDPYPNPSKKRELAQKTGLTPTQVGNWFKNRRQRDR [A31K]
Given back: -0.364

Asked: Now this one: CFKERTRHLLREWYLQDPYPPPSKKRELAQATGLTPTQVGNWFKNRRQRDR [N21P]
Given back: -0.505

Asked: Now this one: CFKERTRHLLREWYLQDPYPNPSKKRELAQATGLTPTQVGNWFKNRMQRDR [R47M]
Given back: -0.786

Asked: Now this one: CFKERTRHLLREWYLQDPYPNPRKKRELAQATGLTPTQVGNWFKNRRQRDR [S23R]
Given back: -0.813
